Reported solubility kinetic values for the following compounds.
assay-setup: buffer; pH 7.4; 200.0 µM

1. O=C(NCC1CCCO1)c1cc(-c2ccccc2)nc2ccccc12 (centres undefined)
> 49.9 µg/mL
2. O=c1oc2ccc([N+](=O)[O-])cc2c(N2CCOCC2)c1[N+](=O)[O-]
> 48.2 µg/mL
3. Cn1cccc1/C=N/NC(=O)Cc1cccs1
> 37.1 µg/mL
4. O=C1CCCN1CCCNS(=O)(=O)c1ccc(F)c(F)c1
> 47.8 µg/mL
5. O=C(c1cc2cc(Br)ccc2[nH]1)N1CCc2ccccc21
< 0.4 µg/mL

// recorded solubility kinetic for COc1ccc2oc(C(=O)NC(C)c3ccccn3)c(C)c2c1 (centres undefined) : > 46.6 µg/mL

// recorded solubility kinetic for COc1cc([N+](=O)[O-])cc([N+](=O)[O-])c1NC(=O)N1CCOCC1 : > 48.9 µg/mL

###

assay-setup: buffer; pH 7.4; 200.0 µM
Reported solubility kinetic values for the following compounds.

Consider the reported solubility kinetic for these compounds:
1) O=C(O)c1ccc(N=C2NC(=O)C(CO)(CO)S2)cc1
> 44.4 µg/mL
2) COc1ccc(C)cc1NC(=O)NC1CCCc2ccccc21 (stereo not drawn)
< 0.3 µg/mL
3) Cc1nc(-c2cc(-c3ccc(Cl)cc3)no2)cs1
< 0.3 µg/mL
4) OCCNCCc1c[nH]c2ccc(OCc3ccccc3)cc12
> 46.6 µg/mL
5) CC(C)NC(=O)NNC(=O)c1nn(-c2ccc(F)cc2)ccc1=O
> 50 µg/mL

// recorded solubility kinetic for CC(=O)c1ccc(OCCOc2ccc(Cl)c3cccnc23)cc1 : < 0.7 µg/mL

// recorded solubility kinetic for CSc1cccc(NC(=O)C2CC(=O)N(Cc3ccccc3)C2)c1 (stereo not drawn) : > 51.1 µg/mL

// recorded solubility kinetic for CCOc1ccc(C(C)NC(=O)C2CCCC2)cc1 (stereo not drawn) : > 39.2 µg/mL

###

assay-setup: buffer; pH 7.4; 200.0 µM
result-type: solubility kinetic

Consider the reported solubility kinetic for these compounds:
1. CCN(CCO)c1nc(N2CCCCC2)c2cnn(C)c2n1
> 45.7 µg/mL
2. CC(Sc1nc(N)cc(=O)[nH]1)C(=O)N1CCOCC1 (stereo not drawn)
> 42.6 µg/mL

For the next question, use this compound.
// recorded solubility kinetic for O=C(CCNc1cccc(F)c1)c1cc2ccccc2o1 : < 0.6 µg/mL

###

Reported solubility kinetic values for the following compounds.
assay-setup: buffer; pH 7.4; 200.0 µM
Numbers only here, please. The scale is mg/mL.

Consider the reported solubility kinetic for these compounds:
1. CC(=O)Nc1ccc(S(=O)(=O)N(C)c2ccc(OCCOc3ccccc3F)cc2)cc1
0.0065
2. COc1cccc(C(=O)N2CCN(c3ccccn3)CC2)c1
0.0438
3. Cc1ccc(NC(=O)COc2ccc(Br)cn2)cc1
0.0177

// recorded solubility kinetic for CC(=O)Nc1ccc(NC(=O)C(c2ccccc2)c2ccccc2)cc1 : 0.0008

// recorded solubility kinetic for O=C(COC(=O)CC1CC2CCC1C2)Nc1ccccc1[N+](=O)[O-] (centres undefined) : 0.0029

// recorded solubility kinetic for C=Cc1ccc(Cn2c(=O)n(C)c(=O)c3sccc32)cc1 : 0.001

###

assay-setup: buffer; pH 7.4; 200.0 µM
result-type: solubility kinetic

Consider the reported solubility kinetic for these compounds:
1. O=S(=O)(c1cccc2nonc12)N1CCCCC1
> 40.1 µg/mL
2. CCCCNC(=O)c1ccc(CS(=O)(=O)Cc2ccccc2F)o1
> 53 µg/mL
3. Cn1ncc([N+](=O)[O-])c1C(=O)Nc1ccccc1
> 36.9 µg/mL

// recorded solubility kinetic for O=C(CCC(=O)NC1CCCCC1)Nc1cccnc1 : > 41.3 µg/mL

// recorded solubility kinetic for CS(=O)(=O)N1CCn2c1nc1ccccc12 : > 35.6 µg/mL

// recorded solubility kinetic for Cc1ccccc1NC(=O)CCC(=O)OCC(=O)c1cccc([N+](=O)[O-])c1 : > 55.6 µg/mL

// recorded solubility kinetic for COc1cc(OC)nc(Oc2cccc(C(F)(F)F)c2)n1 : < 0.3 µg/mL

// recorded solubility kinetic for CCCNC(=O)CSc1nnc(-c2ccc(F)cc2)o1 : > 44.3 µg/mL

// recorded solubility kinetic for NC(=O)NC(CC(=O)NCCc1ccccn1)c1ccccc1Cl (stereo not given) : > 52 µg/mL

// recorded solubility kinetic for COc1cc(/C=N/NC(=O)c2ccccc2)ccc1O : > 40.5 µg/mL

###

assay-setup: buffer; pH 7.4; 200.0 µM
result-type: solubility kinetic (µg/mL)
Numbers only here, please. The scale is µg/mL.

Consider the reported solubility kinetic for these molecules:
1) CCn1cc(CCCC(=O)NCc2ccccc2OC)c2ccccc21
10.2
2) CCOc1ccccc1N1CCN(C(=O)CC(C)(C)C)CC1
45.1
3) COCc1c(C(=O)NC2CCCCCC2)oc2ccccc12
10.4
4) COC(=O)c1ccc(C(=O)Nc2ccc(C(C)C)cc2N)cc1
2.5

// recorded solubility kinetic for COC(=O)c1cc(Sc2c(Cl)cccc2Cl)ccn1 : 37

// recorded solubility kinetic for COCc1c(C(=O)Nc2cccc(S(=O)(=O)N3CCCCC3)c2)oc2ccccc12 : 3.1

// recorded solubility kinetic for CC1(C)CC(=O)C2=C(C1)NC(=O)NC2c1ccc(Cl)cc1 (stereo unspecified) : 6.9

// recorded solubility kinetic for COc1cc(/C=C/C(=O)OCC(=O)c2ccc[nH]2)cc(OC)c1OC : 9.4

###

assay-setup: buffer; pH 7.4; 200.0 µM
result-type: solubility kinetic

1) O=C(CSc1n[nH]c(=O)n1C1CC1)Nc1ccccc1
> 43.6 µg/mL
2) CC(C)c1nc(SCC(=O)Nc2cccc3ccccc23)n[nH]1
> 49 µg/mL
3) COc1ccc(/C=N/NC(=O)c2ccccc2O)cc1COc1ccccn1
> 56.6 µg/mL

For the next question, use this compound.
// recorded solubility kinetic for CC1CCc2cccc3c(O)cc(=O)n1c23 (centres undefined) : > 32.3 µg/mL

###

Reported solubility kinetic values for the following molecules.
assay-setup: buffer; pH 7.4; 200.0 µM

Consider the reported solubility kinetic for these molecules:
1. Nc1cc(=O)[nH]c(SCC(=O)c2ccc(F)cc2)n1
> 41.9 µg/mL
2. CC1CCCN(C2(O)C(=O)Nc3c(C(F)(F)F)cccc32)C1 (stereo not drawn)
> 47.1 µg/mL

For the next question, use this molecule.
// recorded solubility kinetic for NS(=O)(=O)c1ccc(CNc2ncnc3sccc23)cc1 : > 48.1 µg/mL

###

assay-setup: buffer; pH 7.4; 200.0 µM
result-type: solubility kinetic

Consider the reported solubility kinetic for these compounds:
1. Cc1ccccc1Nc1nc(N)nc(CSc2nnc(C)n2C)n1
> 51.4 µg/mL
2. O=C(N/C(=C/c1cccnc1)C(=O)N1CCOCC1)c1ccccc1F
> 53.3 µg/mL
3. CCc1nc(C)cn1S(=O)(=O)c1ccc(Br)cc1
> 49.4 µg/mL
4. COCCn1c(SC2CCOC2=O)nc2ccccc2c1=O (stereo not given)
> 48.1 µg/mL

For the next question, use this compound.
// recorded solubility kinetic for Cc1cc(C)c(S(=O)(=O)c2ccc(F)cc2C)c(=O)[nH]1 : > 44.3 µg/mL

###

assay-setup: buffer; pH 7.4; 200.0 µM
result-type: solubility kinetic

1. O=[N+]([O-])c1ccccc1OCCN1CCOCC1
> 37.8 µg/mL
2. COc1ccc(C(=O)Nc2ccc3ccccc3c2)cc1
< 0.6 µg/mL

// recorded solubility kinetic for O=C(NC(=S)NC1CCC(O)CC1)c1ccco1 (stereo unspecified) : > 40.2 µg/mL

// recorded solubility kinetic for CCC1CC(C(=O)Nc2ccccc2)C(=O)O1 (stereo unspecified) : > 35 µg/mL

// recorded solubility kinetic for O=C(COC(=O)Cc1c(F)cccc1Cl)Nc1ccc2[nH]c(=O)[nH]c2c1 : > 56.7 µg/mL

// recorded solubility kinetic for CC(C)C(NC(=O)c1ccccc1)C(=O)N1CCCCCC1 (stereo unspecified) : > 45.4 µg/mL

// recorded solubility kinetic for C=CCNC(=S)Nc1ccc(Cl)cc1F : > 36.7 µg/mL

###

Reported log10(solubility kinetic) values for the following molecules.
assay-setup: buffer; pH 7.4; 200.0 µM
Please be aware that the numbers have been log10-transformed from solubility kinetic in µg/mL.

1. Cc1cccc(OCC(=O)Nc2ccc(NC(=O)c3ccco3)cc2)c1
-0.22
2. c1ccc(-c2nc3c4ccccc4ccn3c2CN2CCCCC2)cc1
0.91
3. COc1cccc(C(=O)O/N=C(\N)c2ccc(C)cc2)c1
1.01
4. CC(=O)Oc1ccc(C(=O)NC(C)CCc2ccccc2)cc1 (centres undefined)
1.63
5. Nc1cc(=O)[nH]c(SCCSc2ccccc2)n1
0.98
6. O=C(Nc1ccccc1)NC1CCN(Cc2c(F)cccc2Cl)CC1
0.83
7. Cc1[nH]c2c(C)cccc2c1CN1CCC(CO)(Cc2ccccc2)CC1
1.46
8. COC(=O)c1c(C)oc(C)c1S(=O)(=O)N1CCOCC1
1.61

// recorded log10(solubility kinetic) for O=C(O)CN1C(=O)C(=O)N(Cc2c(F)cccc2Cl)C1=O : 1.66

// recorded log10(solubility kinetic) for CCOC(=O)c1cc(C)nc(S(C)(=O)=O)c1C#N : 1.45

// recorded log10(solubility kinetic) for COc1ccc(CNc2ncnc3c2[nH]c2ccccc23)cc1 : -0.70

// recorded log10(solubility kinetic) for O=C(c1ccncc1)N1CCN(S(=O)(=O)c2ccc(OC(F)(F)F)cc2)CC1 : 1.56

FYI, the data here is from PubChem BioAssay AID1996.
